Tested on: NEK9
Details: concentration: 1 μM, replicates: in singlicate; n = 1;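 further: KINOMEscan kinase panel screen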
Decision: %Inh >= 3% yields met, all other cases yield not met.

compound | class name
Nc1ncc(-c2ccc3nccc(-c4ccncc4)c3c2)cc1S(=O)(=O)N1CCCCC1 | met
CCn1cnc2c(NCc3ccccc3)ncnc21 | not met
CSc1ccc(NC2=C(c3ccc(Cl)cc3)C(=O)NC2=O)cc1 | not met
CC(C)c1nc(-c2cccc(NS(=O)(=O)c3c(F)cccc3F)c2)c(-c2ccnc(Nc3ccc(N4CCOCC4)nc3)n2)s1.Cl | met
CCNc1nccc(-c2c(-c3ccc(F)cc3)ncn2C2CCN(C)CC2)n1 | not met
COC(=O)Nc1nc2ccc(Oc3ccc(NC(=O)Nc4cc(C(F)(F)F)ccc4F)cc3)cc2[nH]1.Cl | met
COc1cccc(CC(=O)N2CCc3cc(-c4cn(C)c5ncnc(N)c45)ccc32)c1 | met
NCCC(NC(=O)c1cc(Br)c(-c2ccnc3[nH]ccc23)s1)c1ccccc1.O=C(O)C(F)(F)F.O=C(O)C(F)(F)F (stereo not drawn) | met
O=C1NC(=O)C(c2ccccc2Cl)=C1Nc1cccc(Cl)c1 | met
COc1cccc(C2=C(Nc3cccc(O)c3)C(=O)NC2=O)c1 | met
O=C(Nc1n[nH]c2nc(-c3cccc(O)c3)ccc12)C1CC1 | met
Cc1ccc(Nc2ccnc(Nc3ccc(C)c(F)c3)n2)cc1O.Cl | not met
Fc1cc(Cl)ccc1Nc1ccnc2cc(-c3ccc(CN4CCSCC4)o3)ccc12 | met
Cc1ccc(O)cc1Nc1ccnc2cc(-c3ccc(CN4CCCCC4)o3)ccc12 | not met
Cc1cc(-c2ccnc(Nc3cccc(C#N)c3)n2)cc(C)c1O | met
O=C(O)C(F)(F)F.O=c1[nH]ccc2nc(N[C@@H]3CCNC3)nc(Nc3cc(Cl)cc(Cl)c3)c12 | met
O=C(Nc1n[nH]c2nc(-c3ccccc3O)ccc12)C1CC1 | met

###

System: MST2
Construct: gene STK3
Settings: concentration: 1 μM, replicates: in singlicate; n = 1

compound | %Inh (%)
Cn1cc(-c2ccc3c(c2)CCN3C(=O)Cc2cc(F)cc(C(F)(F)F)c2)c2c(N)ncnc21 [GSK2635225] | 10
Cc1ccc(NC(=O)c2cccc(N3CCCCC3)c2)cc1-c1ccc(C(=O)NCC2CC2)cc1 [GSK1917008] | 34
N#Cc1cnc2cc(-c3cnc(CNCCN4CCOCC4)s3)ccc2c1Nc1ccc(Oc2ccccc2)cc1 [GW664114] | 12
COc1cccc(NC(=O)NCCNc2ccnc(Nc3ccc(F)cc3)n2)c1 [GSK1379879] | 15
CC(=O)Nc1cn2nc(Oc3cccc(NC(=O)c4cccc(C(F)(F)F)c4)c3)ccc2n1 | 0
CN(c1ccc(NC(=O)N2CCN(CCCN3CCOCC3)CC2)cc1)c1ccnc(Nc2ccc(CS(C)(=O)=O)cc2)n1.Cl [GW830899] | 0
COC(=O)Nc1nc2ccc(Oc3ccc(NC(=O)Nc4cc(C(F)(F)F)ccc4F)cc3)cc2[nH]1.Cl [GW654607] | 0
CCn1cnc2c(NCc3ccccc3)ncnc21 [SKF-96418] | 14
CC(C)c1nc(-c2cccc(NS(=O)(=O)c3c(F)cccc3F)c2)c(-c2ccnc(Nc3ccc(N4CCOCC4)nc3)n2)s1.Cl [GSK1723980] | 0
Cl.Cl.NC(CNC(=O)c1cc(Br)c(-c2ccnc3[nH]ccc23)s1)c1ccccc1 (stereo not shown) [GSK1322949] | 26
COc1cc(Nc2nccc(N3CCC(NS(=O)(=O)c4ccc(NC(C)=O)cc4)CC3)n2)cc(OC)c1OC [GSK1379825] | 19
Cc1cc(-c2c(-c3ccc(F)cc3)ncn2CCCN2CCOCC2)nc(N)n1 [SB-222517] | 20
Cc1ccc(NC(=O)c2ccnc(N3CCCCC3)c2)cc1-c1ccc(C(=O)NCC2CC2)cc1 [GW775610] | 32
CNc1nccc(-c2ccc3c(N)n[nH]c3c2)n1 [GSK2206003] | 0
COc1cccc2c(-c3ccncc3)c(-c3ccc(F)cc3)nn12 [GW468513] | 0
Fc1cc(Cl)ccc1Nc1ccnc2cc(-c3ccc(CN4CCOCC4)o3)ccc12 [GW560109] | 0
CN(c1ccc(F)c(NC(=O)c2cccc(OC(C)(C)C#N)c2Cl)c1)c1ccc2nc(NC(=O)C3CC3)sc2n1 | 0
Cc1ccc(O)cc1Nc1ccnc2cc(-c3ccc(CN4CCCCC4)o3)ccc12 [GW557777] | 0
COc1cccc(CC(=O)N2CCc3cc(-c4cn(C)c5ncnc(N)c45)ccc32)c1 [GSK2608899] | 100
Cc1ccc(Nc2ccnc(Nc3ccc(C)c(F)c3)n2)cc1O.Cl [GW582868] | 9
Cc1cccc(Nc2nc(NCCN)ncc2C(N)=O)c1 [GSK1292139] | 38
NCCC(NC(=O)c1cc(Br)c(-c2ccnc3[nH]ccc23)s1)c1ccccc1.O=C(O)C(F)(F)F.O=C(O)C(F)(F)F (stereo not shown) [GSK1307810] | 4
Cc1nn2c(=O)cc(N3CCO[C@H](C)C3)nc2n1Cc1cccc(Cl)c1Cl [GSK2373693] | 0
Cc1ccccc1CC(=O)N1CCc2cc(-c3cn(C)c4ncnc(N)c34)ccc21 [GSK2603346] | 0
O=C1NC(=O)C(c2ccccc2Cl)=C1Nc1cccc(Cl)c1 [SB-342409] | 8
CC(C)NCC(Cc1ccccc1)NC(=O)c1cc(Br)c(-c2ccnc3[nH]ccc23)s1.Cl.Cl (stereo not shown) [GSK1383281] | 0
Cn1cc(-c2cnc(N)c3c(-c4ccc5c(c4)CCN5C(=O)Cc4ccccc4)csc23)cn1 [GSK2593074] | 100
Cn1cc(-c2ccc3c(c2)CCN3C(=O)Cc2cc(F)cc(F)c2F)c2c(N)ncnc21 [GSK2634140] | 42
Cc1cc(-c2ccnc(Nc3cccc(C#N)c3)n2)cc(C)c1O [GSK1440913] | 9
O=C(Nc1n[nH]c2nc(-c3cccc(O)c3)ccc12)C1CC1 [SB-711805] | 0
O=C(Nc1n[nH]c2nc(-c3ccccc3)ccc12)C1CC1 [SB-708999] | 0
CS(=O)(=O)c1cccc(CNc2nc(Nc3ccc4c(c3)CCC(=O)N4)ncc2C(F)(F)F)c1 | 11
Cl.O=C(Nc1ccc(Oc2ccc3[nH]c(NC(=O)c4ccco4)nc3c2)cc1)Nc1cc(C(F)(F)F)ccc1F [GW683134] | 0
CSc1ccc(NC2=C(c3ccc(Cl)cc3)C(=O)NC2=O)cc1 [SB-317658] | 45

From: paper PMC5540273
